The measurements presented in this section are drawn from patent US6355799B1.

Tested on: large crabgrass (Digitaria sanguinalis, DIGSA)
Experiment: Pre-emerge test, greenhouse herbicide activity screening
Type: in vivo
Details: 250 g ai/ha; rating scale 0-100, 14 days after application
property: Pre-emerge herbicidal activity, phytotoxicity rating DIGSA

[[record]]
compound = "CCCCCCOC(=O)C(Cl)Cc1c(OC)c(Cl)cc(F)c1-n1c(=O)cc(C(F)(F)F)n(C)c1=O (single isomer, unassigned)"
meas_value = 100

[[record]]
compound = "CCCCCOC(=O)C(Cl)Cc1c(OC)c(Cl)cc(F)c1-n1c(=O)cc(C(F)(F)F)n(C)c1=O (single isomer, unassigned) [14-10]"
meas_value = 90

[[record]]
compound = "CCCCOC(=O)C(Cl)Cc1c(OC)c(Cl)cc(F)c1-n1c(=O)cc(C(F)(F)F)n(C)c1=O (single isomer, unassigned)"
meas_value = 100

[[record]]
compound = "COc1c(Cl)cc(F)c(-n2c(=O)cc(C(F)(F)F)n(C)c2=O)c1CC(Cl)C(=O)OCC(C)C (single isomer, unassigned)"
meas_value = 100

[[record]]
compound = "COc1c(Cl)cc(F)c(-n2c(=O)cc(C(F)(F)F)n(C)c2=O)c1CC(Cl)C(=O)OCC(F)(F)C(F)(F)C(F)(F)F (single isomer, unassigned)"
meas_value = 90

[[record]]
compound = "C#CCOC(=O)C(C)(Cl)Cc1c(OC)c(Cl)cc(F)c1-n1c(=O)cc(C(F)(F)F)n(C)c1=O (stereo not shown)"
meas_value = 90

[[record]]
compound = "CCCCCOC(=O)C(C)(Cl)Cc1c(OC)c(Cl)cc(F)c1-n1c(=O)cc(C(F)(F)F)n(C)c1=O (stereo not shown)"
meas_value = 100

[[record]]
compound = "COc1c(Cl)cc(F)c(-n2c(=O)cc(C(F)(F)F)n(C)c2=O)c1CC(C)(Cl)C(=O)OCc1ccccc1 (stereo not shown)"
meas_value = 100

[[record]]
compound = "CCCOC(=O)C(C)(Cl)Cc1c(OC)c(Cl)cc(F)c1-n1c(=O)cc(C(F)(F)F)n(C)c1=O (stereo not shown)"
meas_value = 95

[[record]]
compound = "CCOC(=O)CCc1c(OC)c(Cl)cc(F)c1-n1c(=O)cc(C(F)(F)F)n(C)c1=O"
meas_value = 85


###

phytotoxicity rating CASOB overview
Test system: sicklepod (Cassia obtusifolia, CASOB)
Test: Post-emerge test, greenhouse herbicide activity screening
Format: in vivo
Settings: post-emerge, 63 g ai/ha, 14 days after application, rating scale 0-100
property: phytotoxicity rating CASOB

[[record]]
compound = "CCc1ccc(COC(=O)Nc2c(OC)c(Cl)cc(F)c2-n2c(=O)cc(C(F)(F)F)n(C)c2=O)cc1 [4-31]"
meas_value = 10

[[record]]
compound = "COc1c(Cl)cc(F)c(-n2c(=O)cc(C(F)(F)F)n(C)c2=O)c1NC(=O)Oc1ccccc1C(C)(C)C [4-27]"
meas_value = 20

[[record]]
compound = "COc1c(Cl)cc(F)c(-n2c(=O)cc(C(F)(F)F)n(C)c2=O)c1NC(=O)c1ccc2ccccc2c1 [2-75]"
meas_value = 100

[[record]]
compound = "COc1c(Cl)cc(F)c(-n2c(=O)cc(C(F)(F)F)n(C)c2=O)c1NC(=O)Oc1c(C)cc(C)cc1C [4-25]"
meas_value = 20

[[record]]
compound = "COc1c(Cl)cc(F)c(-n2c(=O)cc(C(F)(F)F)n(N)c2=O)c1NC(=O)c1ccc2ccccc2c1 [2-77]"
meas_value = 40

[[record]]
compound = "COc1c(Cl)cc(F)c(-n2c(=O)cc(C(F)(F)F)n(C)c2=O)c1NC(=O)c1ccc(C(F)(F)F)cc1 [2-33]"
meas_value = 70

[[record]]
compound = "COc1c(Cl)cc(F)c(-n2c(=O)cc(C(F)(F)F)n(C)c2=O)c1NC(=O)c1ccc2c(c1)OCO2 [2-73]"
meas_value = 60

[[record]]
compound = "COc1c(Cl)cc(F)c(-n2c(=O)cc(C(F)(F)F)n(C)c2=O)c1N(C(=O)C=Cc1ccccc1Cl)C(=O)C=Cc1ccccc1Cl [2-83]"
meas_value = 0

[[record]]
compound = "COc1c(Cl)ccc(-n2c(=O)cc(C(F)(F)F)n(C)c2=O)c1NC(=O)c1ccc2ccccc2c1 [2-202]"
meas_value = 100

[[record]]
compound = "Cn1c(C(F)(F)F)cc(=O)n(-c2ccc(Cl)cc2NC(=O)Oc2ccccc2)c1=O [4-50]"
meas_value = 0

[[record]]
compound = "COc1c(Cl)cc(F)c(-n2c(=O)cc(C(F)(F)F)n(C)c2=O)c1NC(=O)C=Cc1ccco1 [2-92]"
meas_value = 0

[[record]]
compound = "Cn1c(C(F)(F)F)cc(=O)n(-c2c(F)cc(Cl)c(OCC#N)c2N(C(=O)c2ccc(F)cc2F)C(=O)c2ccc(F)cc2F)c1=O [2-45]"
meas_value = 0

[[record]]
compound = "Cc1ccccc1COC(=O)Nc1c(C)c(Cl)cc(F)c1-n1c(=O)cc(C(F)(F)F)n(C)c1=O [4-56]"
meas_value = 100

[[record]]
compound = "COc1c(Cl)cc(F)c(-n2c(=O)cc(C(F)(F)F)n(C)c2=O)c1NC(=O)OCc1ccccc1C(F)(F)F [4-33]"
meas_value = 30

[[record]]
compound = "COc1c(Cl)cc(F)c(-n2c(=O)cc(C(F)(F)F)n(C)c2=O)c1NC(=O)c1ccc(Br)cc1 [2-61]"
meas_value = 100

[[record]]
compound = "CNC(=O)N(C(=O)NC)c1c(OC)c(Cl)cc(F)c1-n1c(=O)cc(C(F)(F)F)n(C)c1=O [Compound 3-1]"
meas_value = 0

[[record]]
compound = "COc1c(Cl)cc(F)c(-n2c(=O)cc(C(F)(F)F)n(C)c2=O)c1NC(=O)c1ccc(Cl)cc1 [2-56]"
meas_value = 100

[[record]]
compound = "COc1c(Cl)cc(F)c(-n2c(=O)cc(C(F)(F)F)n(C)c2=O)c1NC(=O)OCc1ccccc1[N+](=O)[O-] [4-34]"
meas_value = 90

[[record]]
compound = "COc1c(Cl)cc(F)c(-n2c(=O)cc(C(F)(F)F)n(C)c2=O)c1NC(=O)OCc1ccc(Cl)c(Cl)c1 [4-32]"
meas_value = 80

[[record]]
compound = "COc1c(Cl)cc(F)c(-n2c(=O)cc(C(F)(F)F)n(C)c2=O)c1NC(=O)c1c(F)cccc1F [2-47]"
meas_value = 70

[[record]]
compound = "CCOC(=O)C(=O)Nc1c(OC)c(Cl)cc(F)c1-n1c(=O)cc(C(F)(F)F)n(C)c1=O [2-118]"
meas_value = 0

[[record]]
compound = "Cc1c(Cl)cc(F)c(-n2c(=O)cc(C(F)(F)F)n(C)c2=O)c1NC(=O)OCCc1ccccc1 [4-57]"
meas_value = 60

[[record]]
compound = "COc1c(Cl)cc(F)c(-n2c(=O)cc(C(F)(F)F)n(C)c2=O)c1NC(=O)c1cccc(Cl)c1 [2-54]"
meas_value = 90

[[record]]
compound = "COc1c(Cl)cc(F)c(-n2c(=O)cc(C(F)(F)F)n(C)c2=O)c1NC(=O)c1ccccc1F [2-39]"
meas_value = 60

